B1: RTP4 (parent)
chain: TYWEHWTSQGQVRMRLFGQRCQKC

# Variants of: B1
# TEST DESCRIPTION: protein stability index of a GFP-peptide fusion (GPS, HEK-293T) (PSI 1-6); higher = more stable;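 note: lentivirally expressed fusions sorted by FACS into six bins by GFP to DsRed ratio, PSI derived from sequencing read proportions per bin multiplied by bin number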
# CONDITION: c terminus: a fixed tail appended
READOUT NAME: protein stability index
Please state the value as a number alone, without comment.

Consider the worked cases shown below.
Q: Fill in the blank: the reported protein stability index of TYWEHWRSQGQVRMRLFGQRCQKC [T7R] is ____.
A: 1.98

Q: // query: TYWEHWTSQGQVRMRLFRQRCQKC [G18R]
A: 2.02

Here is another variant to look at.
Q: Fill in the blank: the reported protein stability index of TYWEHWTSAGQVRMRLFGQRCQKC [Q9A] is ____.
A: 1.95
